self-cleavage values, listed per item
B1: HDV Ribozyme (parent)
chain: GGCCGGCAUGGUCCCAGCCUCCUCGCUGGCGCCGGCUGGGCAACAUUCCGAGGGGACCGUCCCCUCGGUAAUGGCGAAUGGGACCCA

variants of: B1; experiment: self-cleavage, relative activity (ratio to wild type); higher = more cleavage; co-transcriptional
reported.property: self-cleavage

| mutant | measurement |
| --- | --- |
| C21A G55C | 0.13 |
| C13A G31U | 0.0604 |
| G34A C49G | 0.155 |
| C32A U37C | 0.203 |
| A8U G76U | 0.707 |
| U9G C15G | 0.739 |
| A78U U79C | 0.375 |
| G34C G55C | 0.261 |
| G29C A71U | 0.122 |
| G34C A56C | 0.237 |
| C7U C36U | 0.399 |
| G2A A83U | 0.119 |
| G38U G74A | 0.0248 |
| G2U C33G | 0.00889 |
| A51U A78G | 0.532 |
| C13A A87G | 0.187 |
| C4G G59A | 0.198 |
| G67C C86U | 0.979 |
| G59C G81C | 0.261 |
| U27A C84G | 0.957 |
| U27G U37G | 0.391 |
| G53U G81A | 0.445 |
